The values you see were collected from a melting point compilation (Tetko et al.; mined from patent text by program, amines drawn as free bases though some values may be those of a salt).

readout_type: melting point

For orientation, consider the following solved cases.
- C[C@H](O)Cc1ncc[nH]1: 119 to 121 °C
- Cc1ccc(C)n1-c1ccc(C(C)NO)cc1 (centres undefined): 109 to 111 °C

Ask | Looking for the measured melting point of Oc1c2c(nn1-c1nc3ccccc3[nH]1)CCc1ccccc1-2 , can you help?
Reply | 205 to 206 °C

Ask | What melting point value was documented for this compound, Cn1cc(S(=O)(=O)C(F)(F)F)c(-c2ccc(Cl)cc2)c1Cl ?
Reply | 117 to 119 °C

Ask | Requested read-out: melting point. Entry: NC(CCOc1ccncc1)C(=O)c1ccccc1CO (centres undefined)
Reply | 108 to 109 °C

* * *

Listing of entries alongside the reported melting point.

Solved entries:
* Nc1ccccc1-c1ncn[nH]1 | 145 to 148 °C
* CC1CN(c2nnc(N3CCOC(C)C3)c3cc(-c4ccccc4)ncc23)CCO1 (stereo not drawn) | 75 to 81 °C
* O=C1c2ccccc2C(=O)C1(CCN1CCC(c2noc3cc(F)ccc23)CC1)c1ccccc1 | 149 to 150 °C
* Cc1cc2c(c(C)c1NC=O)C(c1ccc(C(C)C)cc1)CO2 (stereo not drawn) | 193 to 196 °C
* Cn1c(=O)[nH]c2cnc(-c3ccccc3)nc21 | 286 to 289 °C
* Cc1noc(-c2ccc(C(=O)O)s2)n1 | 226 to 228 °C

Ask | Could you tell me which melting point is on file for CCOC(=O)c1c(C)csc1N/C=C(\C#N)C(=O)OC(C)(C)C ?
Reply | 144 °C

Ask | Could you tell me which melting point is on file for CCOC(=O)c1cnn2c1nc(N)c1cnc3c(cnn3CC)c12 ?
Reply | 331 to 332 °C

Ask | Form field: reported melting point of COc1ccc(C2c3cc(OC)c(OC)cc3CCN2C(=O)NCCN(C(C)C)C(C)C)cc1OC (stereo not drawn)
Reply | 114 to 115 °C

* * *

readout_type: melting point

Answered examples (3):
- COc1cc(C(=O)c2nc(NC(C)=O)c3ccccn23)ccc1[N+](=O)[O-]: 256 °C
- NNC(=O)c1ncn2c1C1CCN1C(=O)c1sccc1-2 (centres undefined): 260 to 263 °C
- c1ccc(Cc2cc3ccncc3[nH]2)cc1: 142 to 146 °C

As a next step, examine the compound that follows.
Ask | Data request, read-out melting point, for COc1ccc(-c2ccc(C#N)cc2)cc1C=O
Reply | 146 to 147 °C

* * *

readout_type: melting point

Below, each entry is followed by its recorded melting point result.
- Cc1c(OCc2ccccc2)ccc2cncn12: 52 to 54 °C
- CCCCOc1cc(/C=C(\OCC)C(=O)O)ccc1OCCc1ccc(NC(C)=O)cc1: 160 °C
- CC1(C)CCC(C)(C)c2cc(N(Cc3ccc(Cl)cc3)C(=O)Nc3ccc(C(=O)O)cc3)ccc21: 126 to 133 °C
- Cn1c(C(F)(F)F)cc(=O)n(-c2cc(C=O)c(Cl)cc2F)c1=O: 172 to 174 °C
- Cc1cccc2c1nc(-c1c(F)cccc1F)n2Cc1c(F)c(F)c(F)c(F)c1F: 155 to 156 °C

Ask | Quick check: melting point of [N-]=[N+]=NC(C(=O)O)C1c2ccccc2C=Cc2ccccc21 (configuration not stated) ?
Reply | 119 to 120 °C

Ask | What measured melting point goes with COc1cc(CO)c(N)c(OC)c1OC ?
Reply | 56 to 58 °C
